// data source = patent US20250243282A1

# SYSTEM_NAME: Recombinant human Gal3 (rhGal3) (TrueBinding, #QC200361) (human, UniProt P17931 2-250); also: test concentration or dose not given here
# PROTOCOL: cell-based or functional assay
MEASURED_QUANTITY: % inhibition of CD62L shedding (%)
Form entry: value (%) — number only.

| BINDER | UNIT_STRING | NUMERIC_RESULT |
| --- | --- | --- |
| 15F10.2D6 (antibody, mouse IgG2a, V domains shown) VH: EVQLVESGGGLVKPGGSLKLSCAASGFAFSSYAMSWVRQTPEKRLEWVATISDGGVYTYYTDHVKGRFTISRDNAEDNLYLQMSHLKSEDTAMYYCVRDGGYWGQGTTLTVSS VL: DVLMTQTPLSLPVSLGDQASISCRSSQSIVHNNGNTYLEWYLQKPGQSPKLLIYKVSNRFSGVPDRFSGSGSGTDFTLKISRVEAEDLGVYYCFQGSHVPLTFGGGTKLELKR | % | 82.5 |

What the record says about 7D8.2D8 (antibody, mouse IgG2a, V domains shown) VH: EVQLVESGGGLVKPGGSLKLSCAASGFTFSSYAMSWVRQTPEKRLEWVATISDGGIYTYYPDNVKGRFTISRDNAKNNLFLQMSHLKSEDTAMYYCVRDGGYWGQGTTLTVSS VL: DVLMTQTPLSLPVSLGDQASISCRSSQSIVHSNGNTYLEWYLQKPGQSPKLLIYKVSNRFSGVPDRFSGSGSGTDFTLKISRVEAEDLGVYYCFQGSHVPLTFGAGTKLELKR : % inhibition of CD62L shedding is 88.6

What the record says about 847.23F11 (antibody, V domains shown) VH: QVQLQQSGAELVRPGASVKLSCKASGYTFTSSWMNWVKQRPGQGLDWIGMIDPSDSETHYNQMFKDKATLTVDKSSNTAYMQLSRLTSEDSAVYYCVNSNYESGYWGQGTTLTVSS VL: DILMTQSHKFMSTSVGDRVSITCKASQDVSSVVVWYQQKPGQSPKQLIYWASTRHTGVPDRFTGSGSGTDYTLTISSVQAEDLALYYCQQHYSTPYTFGGGTKLEIK : % inhibition of CD62L shedding is 15.2

What the record says about 847.3B3 (antibody, V domains shown) VH: QVQLKESGPGLVAPSQSLSITCTVSGFSLTSYGVHWIRQPPGKGLEWLGGIWAGGSTDYNSPLMSRLSITKDNSKSQVFLKMNSLQSDDTAMYYCASPPSGYDYDVFAYWGQGTLVTVSA VL: DILMTQSPASLSASVGETVTITCRASGNIHNYLAWYQQKQGKSPQLLVYSAKTLADGVPSRFSGSGSGTQFSLKIDSLQPEDFGTYYCQHFWSLFPTFGGGTKLEIK : % inhibition of CD62L shedding is 43.4

What the record says about 2D10-VH0-VL0 (antibody, human IgG4 S228P, kappa, V domains shown) VH: QVQLQQSGPELVKPGASVKISCKASGYTFTDYYINWVKQRPGQGLEWIGWIYPGSQDTKYNEKFKGKATLTVDTSSSTAYMQLGSLTSEDSAVYFCANYFGSSGWFFDVWGTGTTVTVSS VL: DIVMTQAAFSNPVTLGTSASISCRSSKSLLHSDGITYLYWYLQRPGQSPQLLIYRMSNLASGVPDRFSGSGSGTDFTLRISRVEAEDVGVYYCAQMIEFPLTFGAGTILELKR : % inhibition of CD62L shedding is 62.4
